The molecules below have reported IC50 for UniProtKB P50052.

Guide cases for IC50, answers given:
CN(Cc1ccccc1)[C@@H]1CCN(C(=O)C(c2ccccc2)c2ccccc2)[C@H](C(=O)O)C1: 854 nM
CN(CC#Cc1ccccc1)[C@@H]1CCN(C(=O)C(c2ccccc2)c2ccccc2)[C@H](C(=O)O)C1: 108 nM

Challenge: Tell me measured IC50 for O=C(O)[C@@H]1C[C@H](N2CCC[C@@H](c3ccccc3)C2)CCN1C(=O)C(c1ccccc1)c1ccccc1 please.
Response given: 1440 nM

* * *

Biological target: AT2 receptor (Homo sapiens (Human), UniProt P50052)
Sequence (P50052 whole entry, species assumed): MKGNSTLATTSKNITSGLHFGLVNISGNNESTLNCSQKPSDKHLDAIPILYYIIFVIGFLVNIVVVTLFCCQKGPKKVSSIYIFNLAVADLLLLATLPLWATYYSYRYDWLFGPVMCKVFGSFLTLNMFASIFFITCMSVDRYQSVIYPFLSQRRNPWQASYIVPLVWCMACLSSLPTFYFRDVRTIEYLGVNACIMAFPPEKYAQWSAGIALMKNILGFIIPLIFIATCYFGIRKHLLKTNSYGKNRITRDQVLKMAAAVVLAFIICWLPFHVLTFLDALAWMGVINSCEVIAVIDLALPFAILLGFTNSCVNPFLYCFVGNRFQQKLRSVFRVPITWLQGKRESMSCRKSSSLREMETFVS
I'd be grateful if you could share measured log10(IC50) for these entries.
Hello, just confirming the data are log10 of IC50 with units of nM.

Guide cases for log10(IC50), answers given:
O=C(O)[C@@H]1C[C@@H](N2CCC[C@@H](c3ccccc3)C2)CCN1C(=O)C(c1ccccc1)c1ccccc1: 2.23
O=C(O)[C@@H]1C[C@@H](N2CCC[C@H](c3ccccc3)C2)CCN1C(=O)C(c1ccccc1)c1ccccc1: 2.05
O=C(O)[C@@H]1C[C@H](OCC#Cc2ccccc2)CCN1C(=O)C(c1ccccc1)c1ccccc1: 2.36
O=C(O)[C@@H]1C[C@H](N2CCC[C@H](c3ccccc3)C2)CCN1C(=O)C(c1ccccc1)c1ccccc1: 2.47
CN(CC#Cc1ccc(F)cc1)[C@H]1CCN(C(=O)C(c2ccccc2)c2ccccc2)[C@H](C(=O)O)C1: 3.02

Give log10(IC50) for each listed item.
1. O=C(O)[C@@H]1Cc2c(c3ccccc3n2Cc2ccccc2)CN1C(=O)C(c1ccccc1)c1ccccc1
2. CN(CCCc1ccccc1)[C@@H]1CCN(C(=O)C(c2ccccc2)c2ccccc2)[C@H](C(=O)O)C1

Response given:
[2.32, 3.71]
